# assay system: zGlyRα2/ßa (Danio rerio, UniProt A0ACM8PZL4+F1R8P4)
# Construct: full-length cDNAs in pCS2+, cRNAs co-injected 1:1 in Xenopus laevis oocytes; heteropentamer
# Sequence (F1R8P4 28-449): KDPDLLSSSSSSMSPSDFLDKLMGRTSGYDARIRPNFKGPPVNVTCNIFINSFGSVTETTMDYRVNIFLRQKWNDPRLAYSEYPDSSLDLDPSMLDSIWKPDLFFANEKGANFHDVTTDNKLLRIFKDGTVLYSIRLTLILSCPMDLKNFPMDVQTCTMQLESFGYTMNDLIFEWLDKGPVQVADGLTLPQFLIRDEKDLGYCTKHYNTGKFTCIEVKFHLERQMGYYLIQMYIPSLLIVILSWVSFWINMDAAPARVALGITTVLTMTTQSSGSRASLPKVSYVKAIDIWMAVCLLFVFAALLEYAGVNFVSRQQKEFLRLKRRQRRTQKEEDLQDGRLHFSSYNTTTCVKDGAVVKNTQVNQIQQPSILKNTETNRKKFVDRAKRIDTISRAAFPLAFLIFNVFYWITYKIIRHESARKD
# Sequence (A0ACM8PZL4 23-498): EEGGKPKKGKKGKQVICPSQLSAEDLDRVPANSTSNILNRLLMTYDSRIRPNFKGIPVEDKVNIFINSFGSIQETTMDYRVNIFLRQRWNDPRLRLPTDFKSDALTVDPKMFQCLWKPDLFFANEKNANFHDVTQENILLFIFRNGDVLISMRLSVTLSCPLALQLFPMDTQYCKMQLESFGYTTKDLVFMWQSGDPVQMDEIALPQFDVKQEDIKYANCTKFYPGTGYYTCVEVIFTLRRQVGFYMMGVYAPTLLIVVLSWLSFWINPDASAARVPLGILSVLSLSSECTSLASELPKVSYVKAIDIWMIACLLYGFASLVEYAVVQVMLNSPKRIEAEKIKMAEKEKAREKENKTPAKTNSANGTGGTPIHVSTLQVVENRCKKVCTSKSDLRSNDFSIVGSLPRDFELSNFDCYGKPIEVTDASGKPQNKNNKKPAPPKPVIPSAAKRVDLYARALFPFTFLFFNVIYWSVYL
# measurement notes: two-electrode voltage clamp, Xenopus oocytes
# Excerpt: two-electrode voltage clamp, Xenopus oocytes on zGlyRα2/ßa
measured endpoint: pIC50
Notebook: values listed as pIC50 are -log10 of the concentration (mol/L).

Exercise: Enter measured pIC50, system zGlyRα2/ßa (Danio rerio, UniProt A0ACM8PZL4+F1R8P4), for the compound shown: "O=C1C[C@@H]2OCC=C3CN4CC[C@]56c7ccccc7N1[C@H]5[C@H]2[C@H]3C[C@H]46"
Solution: 6.53
